# tgt: GlcNAc(b1-3)Gal(b1-4)GlcNAc(b1-6)[GlcNAc(b1-3)]Gal(b1-4)GlcNAc
# assay_method_text: glycan array binding signal (z-score within array); higher = stronger binding
# measurement_parameters: glycan notation: IUPAC condensed, linker removed
This excerpt belongs to a sample that is enriched for the strongest signals.

# binder, glycan array binding signal (z-score)
records = [
    ("SBD-G4S3-SBD (protein) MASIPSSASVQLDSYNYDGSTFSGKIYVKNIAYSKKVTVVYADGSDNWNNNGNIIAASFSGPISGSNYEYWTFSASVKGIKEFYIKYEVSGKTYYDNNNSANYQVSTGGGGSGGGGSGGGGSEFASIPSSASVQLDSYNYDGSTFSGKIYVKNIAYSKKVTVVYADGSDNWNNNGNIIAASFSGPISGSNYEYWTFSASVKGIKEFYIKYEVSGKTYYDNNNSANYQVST", -0.406),
    ("CBP21 (Serratia marcescens), O83009 (protein) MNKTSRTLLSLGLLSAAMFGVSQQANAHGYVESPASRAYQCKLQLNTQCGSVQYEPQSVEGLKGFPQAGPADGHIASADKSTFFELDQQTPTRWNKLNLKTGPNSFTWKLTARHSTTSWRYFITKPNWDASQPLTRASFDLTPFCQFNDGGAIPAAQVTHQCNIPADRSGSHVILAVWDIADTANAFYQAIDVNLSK", -1.31),
    ("Pbx1CASH domain (Cryptococcus neoformans) (protein) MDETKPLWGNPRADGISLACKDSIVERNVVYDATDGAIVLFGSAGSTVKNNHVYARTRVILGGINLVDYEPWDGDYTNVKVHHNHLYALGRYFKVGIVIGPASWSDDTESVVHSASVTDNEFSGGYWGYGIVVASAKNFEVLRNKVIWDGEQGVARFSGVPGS", 1.15),
    ("SSR1 (Sclerotium rolfsii), A0A0M3KL30 (protein) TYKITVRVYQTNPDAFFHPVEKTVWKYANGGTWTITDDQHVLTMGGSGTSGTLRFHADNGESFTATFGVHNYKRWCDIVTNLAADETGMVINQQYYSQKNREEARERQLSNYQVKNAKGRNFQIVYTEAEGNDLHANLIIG", 0.953),
]

These measurements were taken from the supplement of paper PMC8728848.
